Target: TRPV3 E682Q/E689Q/D727N (QQN) (Mus musculus, UniProt Q8K424, D727N/E682Q/E689Q)
Sequence (Q8K424 whole entry E682Q/E689Q/D727N): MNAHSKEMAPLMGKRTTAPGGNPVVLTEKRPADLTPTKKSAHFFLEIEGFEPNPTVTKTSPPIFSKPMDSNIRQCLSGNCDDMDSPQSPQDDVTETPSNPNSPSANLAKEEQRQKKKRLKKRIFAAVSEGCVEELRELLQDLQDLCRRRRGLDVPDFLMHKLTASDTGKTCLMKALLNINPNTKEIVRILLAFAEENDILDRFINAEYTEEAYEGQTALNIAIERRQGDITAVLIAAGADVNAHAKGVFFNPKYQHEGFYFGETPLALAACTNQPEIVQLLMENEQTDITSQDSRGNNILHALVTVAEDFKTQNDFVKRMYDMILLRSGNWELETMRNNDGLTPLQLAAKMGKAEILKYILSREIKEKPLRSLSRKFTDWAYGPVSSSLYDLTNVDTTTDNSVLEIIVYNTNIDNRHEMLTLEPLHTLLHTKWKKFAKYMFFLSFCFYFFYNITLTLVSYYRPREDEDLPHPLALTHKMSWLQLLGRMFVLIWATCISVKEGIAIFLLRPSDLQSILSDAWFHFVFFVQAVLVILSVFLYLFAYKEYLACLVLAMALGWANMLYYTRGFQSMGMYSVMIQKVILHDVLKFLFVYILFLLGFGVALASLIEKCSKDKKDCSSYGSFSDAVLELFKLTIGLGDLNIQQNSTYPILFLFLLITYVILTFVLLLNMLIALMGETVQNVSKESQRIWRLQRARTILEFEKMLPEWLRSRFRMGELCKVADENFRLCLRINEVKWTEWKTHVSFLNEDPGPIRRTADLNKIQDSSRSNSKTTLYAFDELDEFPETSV
Test: cell-based Ca2+ assay
outcome measure: EC50 (µM)

1. Cc1ccc(C(C)C)cc1O
119

---

Biological target: TRPV3 E689Q/D727N (Mus musculus, UniProt Q8K424, D727N/E689Q)
Sequence (Q8K424 whole entry E689Q/D727N): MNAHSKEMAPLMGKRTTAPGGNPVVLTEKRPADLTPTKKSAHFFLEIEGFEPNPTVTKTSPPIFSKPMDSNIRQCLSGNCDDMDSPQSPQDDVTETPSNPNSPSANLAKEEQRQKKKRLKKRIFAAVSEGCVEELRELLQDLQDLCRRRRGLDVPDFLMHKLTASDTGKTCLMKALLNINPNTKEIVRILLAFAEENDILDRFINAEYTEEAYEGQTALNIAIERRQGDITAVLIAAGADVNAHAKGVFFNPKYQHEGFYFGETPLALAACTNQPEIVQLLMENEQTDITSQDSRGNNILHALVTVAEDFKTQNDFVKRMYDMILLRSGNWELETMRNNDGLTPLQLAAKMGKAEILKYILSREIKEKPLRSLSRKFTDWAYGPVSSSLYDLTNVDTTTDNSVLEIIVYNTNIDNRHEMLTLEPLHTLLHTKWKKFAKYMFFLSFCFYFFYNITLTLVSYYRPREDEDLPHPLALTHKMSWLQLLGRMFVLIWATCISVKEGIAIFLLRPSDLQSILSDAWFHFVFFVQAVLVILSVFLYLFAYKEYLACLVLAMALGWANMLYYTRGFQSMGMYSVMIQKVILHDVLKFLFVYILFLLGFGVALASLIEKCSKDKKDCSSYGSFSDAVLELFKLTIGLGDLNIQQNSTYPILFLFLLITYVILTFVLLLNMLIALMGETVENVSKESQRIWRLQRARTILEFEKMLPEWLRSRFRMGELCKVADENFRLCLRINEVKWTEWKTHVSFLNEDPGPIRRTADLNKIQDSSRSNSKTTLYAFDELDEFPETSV
Experiment: cell-based Ca2+ assay
outcome measure: EC50

1. Cc1ccc(C(C)C)cc1O
60.2 µM
